assay.system: Serine/threonine-protein kinase 3 (Homo sapiens) (UniProt Q13188)
Sequence (Q13188 whole entry): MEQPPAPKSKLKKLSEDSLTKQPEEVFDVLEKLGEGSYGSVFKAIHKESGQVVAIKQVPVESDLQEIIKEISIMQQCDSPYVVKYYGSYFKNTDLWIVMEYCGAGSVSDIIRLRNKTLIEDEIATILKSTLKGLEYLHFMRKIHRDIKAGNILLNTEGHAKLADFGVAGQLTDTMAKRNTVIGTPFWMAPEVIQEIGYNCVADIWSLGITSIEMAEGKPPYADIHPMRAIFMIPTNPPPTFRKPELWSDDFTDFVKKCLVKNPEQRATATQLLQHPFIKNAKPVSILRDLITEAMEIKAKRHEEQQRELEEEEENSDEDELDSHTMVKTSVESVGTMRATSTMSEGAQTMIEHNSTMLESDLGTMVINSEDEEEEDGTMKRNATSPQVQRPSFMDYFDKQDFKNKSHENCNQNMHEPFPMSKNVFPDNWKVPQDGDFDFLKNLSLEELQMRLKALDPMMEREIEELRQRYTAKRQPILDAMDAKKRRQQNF
recorded.conditions: at 1 µM
Exercise: for every item that follows, state its recorded residual activity.
One number for each entry, in %.

- smi: "O=c1cc(-c2cccc3c2Sc2ccccc2S3)oc(N2CCOCC2)c1"
  result.units: "%"
  residual activity: 92
- smi: "CN(C)CCCn1cc(C2=C(c3c[nH]c4ccccc34)C(=O)NC2=O)c2ccccc21"
  result.units: "%"
  residual activity: 73
- smi: "Oc1c2ccccc2c2c3c(cccc13)N=N2"
  result.units: "%"
  residual activity: 16
- smi: "CO[C@H]1[C@@H](OC)C[C@H](C)[C@@H](OC)C2=CC(=O)C=C(NC(=O)/C(C)=C/C=C/[C@H](OC)[C@@H](OC(N)=O)/C(C)=C/[C@@H]1C)C2=O"
  result.units: "%"
  residual activity: 110
- smi: "CNc1cc2c(Nc3cccc(Br)c3)ncnc2cn1"
  result.units: "%"
  residual activity: 103

For every record below, what is its residual activity?
1. COc1cccc(-c2cc(=O)c3ccccc3o2)c1N
2. CC(=O)O/N=C1\C(=C2\C(=O)Nc3cc(Br)ccc32)Nc2ccccc21
3. O=C1NC(=O)c2c1c1c3ccccc3[nH]c1c1[nH]c3cc(Br)ccc3c21

1. 97
2. 65
3. 89

For every record below, what is its residual activity?
1. COc1cc2ncnc(Nc3ccc(O)c(Br)c3)c2cc1OC
2. O=C(Nc1cccc(Nc2cc(Nc3cccc(C(F)(F)F)c3)ncn2)c1)C1CC1

97
106

For every record below, what is its residual activity?
1. N#CCCc1ccc2c(c1)-c1[nH]c3ccc([N+](=O)[O-])cc3c1CC(=O)N2
2. O=C1c2ccccc2-[n+]2ccc3c([nH]c4ccccc43)c21

[27, 101]

----------
Exercise: for every item that follows, state its recorded residual activity.
assay.system: Rhodopsin kinase GRK7 (Homo sapiens) (UniProt Q8WTQ7)
Sequence (Q8WTQ7 whole entry): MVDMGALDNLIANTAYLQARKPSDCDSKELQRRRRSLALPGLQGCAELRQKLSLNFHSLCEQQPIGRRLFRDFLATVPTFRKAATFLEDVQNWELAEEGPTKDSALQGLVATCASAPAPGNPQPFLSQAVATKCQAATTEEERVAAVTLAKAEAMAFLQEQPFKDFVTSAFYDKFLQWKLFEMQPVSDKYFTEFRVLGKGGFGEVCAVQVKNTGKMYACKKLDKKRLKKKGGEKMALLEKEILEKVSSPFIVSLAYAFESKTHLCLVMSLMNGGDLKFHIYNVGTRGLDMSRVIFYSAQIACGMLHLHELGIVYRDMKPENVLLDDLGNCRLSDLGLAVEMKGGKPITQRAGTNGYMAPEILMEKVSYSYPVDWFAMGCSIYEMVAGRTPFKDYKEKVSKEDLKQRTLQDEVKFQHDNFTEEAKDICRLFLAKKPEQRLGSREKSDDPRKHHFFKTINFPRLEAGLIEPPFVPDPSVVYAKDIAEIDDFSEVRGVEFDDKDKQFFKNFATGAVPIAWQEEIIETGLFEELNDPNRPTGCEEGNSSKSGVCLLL
recorded.conditions: at 10 µM
Numbers only, in %.

Guide cases for residual activity, answers given:
- smi: "O=C(Nc1cccc(Nc2cc(Nc3cccc(C(F)(F)F)c3)ncn2)c1)C1CC1"
  assay.system: "Rhodopsin kinase GRK7 (Homo sapiens) (UniProt Q8WTQ7)"
  result.units: "%"
  measured: 92
- smi: "Nc1ccc2ncnc(NCCc3ccc(Oc4ccccc4)cc3)c2c1"
  assay.system: "Rhodopsin kinase GRK7 (Homo sapiens) (UniProt Q8WTQ7)"
  result.units: "%"
  measured: 88
- smi: "O=[N+]([O-])c1ccc(-c2nc(-c3ccc(F)cc3)c(-c3ccncc3)[nH]2)cc1"
  assay.system: "Rhodopsin kinase GRK7 (Homo sapiens) (UniProt Q8WTQ7)"
  result.units: "%"
  measured: 92
- smi: "CC#CC(=O)Nc1cc2c(Nc3ccc(F)c(Cl)c3)ncnc2cn1"
  assay.system: "Rhodopsin kinase GRK7 (Homo sapiens) (UniProt Q8WTQ7)"
  result.units: "%"
  measured: 76
- smi: "Cn1nc2c3c(cccc31)C(=O)c1ccccc1-2"
  assay.system: "Rhodopsin kinase GRK7 (Homo sapiens) (UniProt Q8WTQ7)"
  result.units: "%"
  measured: 81
- smi: "COc1cc2ncnc(Nc3ccc(Oc4ccccc4)cc3)c2cc1OC"
  assay.system: "Rhodopsin kinase GRK7 (Homo sapiens) (UniProt Q8WTQ7)"
  result.units: "%"
  measured: 92
- smi: "Cc1cc2ncc(-c3ccccc3)nc2cc1C"
  assay.system: "Rhodopsin kinase GRK7 (Homo sapiens) (UniProt Q8WTQ7)"
  result.units: "%"
  measured: 94
- smi: "CCC(=O)Nc1ccc2ncnc(Nc3cccc(Br)c3)c2c1"
  assay.system: "Rhodopsin kinase GRK7 (Homo sapiens) (UniProt Q8WTQ7)"
  result.units: "%"
  measured: 86

For every record below, what is its residual activity?
1. Oc1ccc(Nc2nc(-c3ccc(Cl)cc3)cs2)cc1
2. CCN(CC)C(=O)c1ccc(Nc2nc(OCC3CCCCC3)c3nc[nH]c3n2)cc1
3. c1ccc2c(-c3ccncc3)c[nH]c2c1
4. O=Nc1c(-c2c(O)[nH]c3ccccc23)[nH]c2ccccc12

103
78
79
18

For every record below, what is its residual activity?
1. Oc1ccc(-c2nc(-c3ccc(F)cc3)c(-c3ccncc3)[nH]2)cc1
2. CCN(CC)CCCCN1c2ccccc2Oc2ccc(Cl)cc21

1: 96; 2: 95
